# target-or-test-system: Muscarinic acetylcholine receptor M1 (Homo sapiens)
# assay-text: Agonist activity at human M1 receptor at 100 uM to 5 mM
The source made the active and inactive calls. No cut-off for these calls is given here.
measured-quantity: Activity

In [3]: df
Out[3]:
                              input_smiles  measured_quantity  observed_measurement
 0     O=c1c(O)c(-c2cccc(Cl)c2F)oc2ccccc12           Activity              inactive
 1       COc1ccc(-c2oc3ccccc3c(=O)c2O)cc1O           Activity              inactive
 2       COc1cc(-c2oc3ccccc3c(=O)c2O)ccc1O           Activity              inactive
 3  O=c1c(O)c(-c2c(F)ccc(F)c2Cl)oc2ccccc12           Activity              inactive
 4     CN(C)c1ccc(-c2oc3ccccc3c(=O)c2O)cc1           Activity              inactive
 5     O=c1c(O)c(-c2c(F)cccc2Cl)oc2ccccc12           Activity              inactive
 6      O=c1c(O)c(-c2cccc(Cl)c2)oc2ccccc12           Activity              inactive
 7        COc1cccc(-c2oc3ccccc3c(=O)c2O)c1           Activity              inactive
 8      O=c1c(O)c(-c2cccc(Br)c2)oc2ccccc12           Activity              inactive
 9       O=c1c(O)c(-c2ccc(O)cc2)oc2ccccc12           Activity              inactive
10     O=c1c(O)c(-c2cc(Br)ccc2F)oc2ccccc12           Activity              inactive
11        COc1cc(-c2cc(=O)c3ccccc3o2)ccc1O           Activity              inactive

* * *

# target-or-test-system: D(1B) dopamine receptor (Homo sapiens)
# assay-text: Agonist activity at human D5 receptor at 100 uM to 5 mM
Active and inactive are the calls of the source. No cut-off for these calls is given here.
measured-quantity: Activity

>>> print(df.to_string())
                                    compound  observed_measurement
 0       O=c1c(O)c(-c2c(F)cccc2Cl)oc2ccccc12              inactive
 1      O=c1c(O)c(-c2ccc(O)c(O)c2)oc2ccccc12              inactive
 2    COc1ccc(C2C=Cc3ccccc3O2)cc1O (racemic)              inactive
 3        Fc1ccccc1C1C=Cc2ccccc2O1 (racemic)              inactive
 4    O=c1c(OCCO)c(-c2cc(Br)ccc2F)oc2ccccc12              inactive
 5           O=c1c(O)c(-c2ccccc2F)oc2ccccc12              inactive
 6     CCN(CC)c1ccc(-c2oc3ccccc3c(=O)c2O)cc1              inactive
 7  CN(C)c1ccc(C2C=Cc3ccccc3O2)cc1 (racemic)              inactive
 8        COc1c(-c2cc(Br)ccc2F)oc2ccccc2c1=O              inactive
 9              O=c1cc(-c2ccccc2F)oc2ccccc12              inactive
10         COc1cc(-c2oc3ccccc3c(=O)c2O)ccc1O              inactive
11         COc1ccc(-c2oc3ccccc3c(=O)c2O)cc1O              inactive
12        O=c1c(O)c(-c2cccc(Br)c2)oc2ccccc12              inactive
13         O=c1cc(-c2ccc(Cl)cc2Cl)oc2ccccc12              inactive
14          COc1ccc(-c2cc(=O)c3ccccc3o2)cc1O              inactive
15            O=c1cc(-c2ccc(O)cc2)oc2ccccc12              inactive
16       CN(C)c1ccc(-c2oc3ccccc3c(=O)c2O)cc1              inactive
17    O=c1c(O)c(-c2c(F)ccc(F)c2Cl)oc2ccccc12              inactive
18       O=c1c(O)c(-c2ccc(Br)cc2F)oc2ccccc12              inactive
19     COc1ccc(C2C=Cc3ccccc3O2)cc1 (racemic)              inactive
20  Clc1ccc(C2C=Cc3ccccc3O2)c(Cl)c1 (racemic)              inactive
21       COc1ccc(F)c(-c2oc3ccccc3c(=O)c2O)c1              inactive
22         O=c1c(O)c(-c2ccc(O)cc2)oc2ccccc12              inactive
23      O=c1c(O)c(-c2ccc(Cl)cc2Cl)oc2ccccc12              inactive

* * *

# target-or-test-system: UniProtKB P0DMS8
# Sequence (whole entry): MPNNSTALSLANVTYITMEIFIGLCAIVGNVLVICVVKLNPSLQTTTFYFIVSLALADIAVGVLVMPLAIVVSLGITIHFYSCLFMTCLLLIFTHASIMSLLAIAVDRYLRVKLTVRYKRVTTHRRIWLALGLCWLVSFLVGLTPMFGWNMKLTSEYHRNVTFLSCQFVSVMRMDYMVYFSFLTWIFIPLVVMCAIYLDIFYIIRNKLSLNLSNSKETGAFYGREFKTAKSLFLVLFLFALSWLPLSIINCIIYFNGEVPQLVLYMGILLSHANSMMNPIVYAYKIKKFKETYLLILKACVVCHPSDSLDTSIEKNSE
# assay-text: Agonist activity at human A3 receptor at 100 uM to 5 mM
Activity calls are given as the source filed them. No cut-off for these calls is given here.
measured-quantity: Activity

>>> df
                                    compound  measured_quantity  observed_measurement
 0  CCOC(=O)COc1c(-c2cc(Br)ccc2F)oc2ccccc2c1=O           Activity              inactive
 1        COc1c(-c2cc(Br)ccc2F)oc2ccccc2c1=O           Activity              inactive
 2         COc1cc(-c2oc3ccccc3c(=O)c2O)ccc1O           Activity              inactive
 3      O=c1c(O)c(-c2ccc(O)c(O)c2)oc2ccccc12           Activity              inactive
 4          COc1cccc(-c2oc3ccccc3c(=O)c2O)c1           Activity              inactive
 5        Fc1ccccc1C1C=Cc2ccccc2O1 (racemic)           Activity              inactive
 6              O=c1cc(-c2ccccc2F)oc2ccccc12           Activity              inactive
 7            O=c1cc(-c2ccc(O)cc2)oc2ccccc12           Activity              inactive
 8         O=c1c(O)c(-c2ccc(O)cc2)oc2ccccc12           Activity              inactive
 9     COc1ccc(C2C=Cc3ccccc3O2)cc1 (racemic)           Activity              inactive
10      O=c1c(O)c(-c2ccc(Cl)cc2Cl)oc2ccccc12           Activity              inactive
11        O=c1c(O)c(-c2cccc(Br)c2)oc2ccccc12           Activity              inactive
12          COc1cc(-c2cc(=O)c3ccccc3o2)ccc1O           Activity              inactive
13         COc1ccc(-c2oc3ccccc3c(=O)c2O)cc1O           Activity              inactive
14    O=c1c(O)c(-c2c(F)ccc(F)c2Cl)oc2ccccc12           Activity              inactive
15    COc1ccc(C2C=Cc3ccccc3O2)cc1O (racemic)           Activity              inactive
16       CN(C)c1ccc(-c2oc3ccccc3c(=O)c2O)cc1           Activity              inactive
17       O=c1c(O)c(-c2c(F)cccc2Cl)oc2ccccc12           Activity              inactive
18  Clc1ccc(C2C=Cc3ccccc3O2)c(Cl)c1 (racemic)           Activity              inactive
19         O=c1cc(-c2ccc(Cl)cc2Cl)oc2ccccc12           Activity              inactive
20       O=c1c(O)c(-c2cccc(Cl)c2F)oc2ccccc12           Activity              inactive
21           O=c1c(O)c(-c2ccccc2F)oc2ccccc12           Activity              inactive
22       O=c1c(O)c(-c2cc(Br)ccc2F)oc2ccccc12           Activity              inactive
23       COc1ccc(F)c(-c2oc3ccccc3c(=O)c2O)c1           Activity              inactive
24  CN(C)c1ccc(C2C=Cc3ccccc3O2)cc1 (racemic)           Activity              inactive
25    O=c1c(OCCO)c(-c2cc(Br)ccc2F)oc2ccccc12           Activity              inactive
26     CCN(CC)c1ccc(-c2oc3ccccc3c(=O)c2O)cc1           Activity              inactive
27        O=c1c(O)c(-c2cccc(Cl)c2)oc2ccccc12           Activity              inactive
28       O=c1c(O)c(-c2ccc(Br)cc2F)oc2ccccc12           Activity              inactive
29          COc1ccc(-c2cc(=O)c3ccccc3o2)cc1O           Activity              inactive
